- measured.target: human ether-à-go-go-related gene (hERG) potassium channel (human, UniProt Q12809);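 also: peak tail current of the secondary pulse compared with the same well before compound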
- Sequence (Q12809 whole entry, looked up): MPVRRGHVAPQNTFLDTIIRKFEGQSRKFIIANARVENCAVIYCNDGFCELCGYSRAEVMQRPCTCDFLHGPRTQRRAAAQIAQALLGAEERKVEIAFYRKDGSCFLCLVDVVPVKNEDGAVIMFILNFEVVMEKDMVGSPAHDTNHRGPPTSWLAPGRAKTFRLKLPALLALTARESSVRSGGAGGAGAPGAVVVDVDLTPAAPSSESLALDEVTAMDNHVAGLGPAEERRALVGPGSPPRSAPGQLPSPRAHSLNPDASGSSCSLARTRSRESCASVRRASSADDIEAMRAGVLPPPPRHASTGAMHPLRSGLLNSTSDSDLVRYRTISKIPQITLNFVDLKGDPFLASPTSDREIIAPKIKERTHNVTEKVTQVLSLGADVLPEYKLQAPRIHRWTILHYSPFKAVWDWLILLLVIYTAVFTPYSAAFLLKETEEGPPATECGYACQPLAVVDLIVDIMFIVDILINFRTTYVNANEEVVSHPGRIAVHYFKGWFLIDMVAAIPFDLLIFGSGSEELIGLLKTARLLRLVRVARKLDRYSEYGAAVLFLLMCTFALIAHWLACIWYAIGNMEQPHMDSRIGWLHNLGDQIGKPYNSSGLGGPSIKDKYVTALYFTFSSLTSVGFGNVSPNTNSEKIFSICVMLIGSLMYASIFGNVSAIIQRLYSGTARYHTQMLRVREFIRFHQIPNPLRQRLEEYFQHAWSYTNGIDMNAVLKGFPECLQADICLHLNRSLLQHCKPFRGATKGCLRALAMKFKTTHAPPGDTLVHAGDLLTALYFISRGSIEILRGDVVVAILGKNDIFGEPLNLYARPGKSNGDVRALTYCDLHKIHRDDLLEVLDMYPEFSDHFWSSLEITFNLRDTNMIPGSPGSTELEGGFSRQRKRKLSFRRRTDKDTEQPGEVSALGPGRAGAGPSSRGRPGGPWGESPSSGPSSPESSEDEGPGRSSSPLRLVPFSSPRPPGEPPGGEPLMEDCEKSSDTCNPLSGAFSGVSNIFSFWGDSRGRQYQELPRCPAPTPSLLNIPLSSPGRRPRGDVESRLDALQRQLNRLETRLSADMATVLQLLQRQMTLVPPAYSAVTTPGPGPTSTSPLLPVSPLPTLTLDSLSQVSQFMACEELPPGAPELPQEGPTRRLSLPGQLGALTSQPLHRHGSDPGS
- assay.text: primary screen, population patch clamp on CHO cells stably expressing hERG; higher = less effect of the substance
Hit rate of the full screen: of about 310,000 compounds, about 14,000 (4.5%) showed an effect of 50% or more. Effects have a minus sign here. The sample holds strong results, similar compounds and a random draw of the others, so the mix is not that of the screen.
I'd appreciate it if you could supply hERG current change (%, negative = inhibition) at 10uM values for the items below.
Give bare numbers, in %.

Before answering, review these 2 worked examples.
structure.string	readout.number
CCN(Cc1ccncc1)Cc1ccc(OC)c(OC)c1.O=C(O)C(=O)O	-6.49
COC(=O)c1ccc(-n2cncn2)c([N+](=O)[O-])c1	12

Items follow; give hERG current change (%, negative = inhibition) at 10uM for each.
1. Cc1sc2ncn(CC(=O)NCCCC(=O)N3CCN(c4ncccn4)CC3)c(=O)c2c1C
2. Cc1ccc(-c2c(C#N)c(N)n(-c3ccccc3)c(=O)c2C#N)cc1
3. COc1ccc(CN(CCN(C)C)Cc2ccccc2)c(OC)c1.O=C(O)C(=O)O
4. CCSc1nsc(NC(=O)Nc2ccc(F)cc2F)n1
5. Cc1ccc(S(=O)(=O)N2CCN(C(=O)c3ccc(-n4cncn4)c([N+](=O)[O-])c3)CC2)cc1C
6. Cc1ccc(S(=O)(=O)N(C)C)cc1NC(=O)c1ccc(-n2cncn2)c([N+](=O)[O-])c1

Result:
1: 7.64; 2: 20.3; 3: -46.1; 4: 24.1; 5: -72.7; 6: -38.8

Request: What value of measured hERG current change (%, negative = inhibition) at 10uM is listed for Cc1cc(C)c(NC(=O)CNC(=O)c2ccc(-n3cncn3)c([N+](=O)[O-])c2)c(C)c1 ?
Result: -12.8

====

Answer each item with its documented hERG current change (%, negative = inhibition) at 10uM.
- measured.target: human ether-à-go-go-related gene (hERG) potassium channel (human);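 also: peak tail current of the secondary pulse compared with the same well before compound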
- assay.text: primary screen, population patch clamp on CHO cells stably expressing hERG; higher = less effect of the substance
Screen size: about 310,000 compounds; about 14,000 (4.5%) showed an effect of 50% or more. The effect is printed as a negative number. The full list was thinned out, with strong results kept by preference.
Answers are plain numbers, in %.

compound	readout.number
CCN1CCN(c2ncc(C(=O)Nc3c(F)cc(F)cc3Br)c3ccccc23)CC1	-60
O=C(CCC(=O)N1CCOc2ccc(Cl)cc21)NCCCN1CCN(Cc2ccccc2)CC1	-73.2
CCN1CCN(c2ncc(C(=O)Nc3cc(Cl)ccc3OC)c3ccccc23)CC1	-61.5

Please supply hERG current change (%, negative = inhibition) at 10uM for each of the following items, keeping them in order.
1. Cc1ccc(O)c(-c2cc(C(=O)Nc3c(C)n(C)n(-c4ccccc4)c3=O)[nH]n2)c1
2. CN1CCN(c2nc(N)cc(=O)[nH]2)CC1
3. O=C(Nc1c(F)cccc1F)c1cnc(N2CCN(c3ccccn3)CC2)c2ccccc12
4. CC(C)Oc1ccc(S(=O)(=O)N2CCCCC2)cc1NC(=O)CN1C(=O)NC2(CCCC2)C1=O
5. Cc1cc(NC(=O)C2COc3ccccc3O2)no1 (stereo not shown)
6. CC1CCCCN1C(=O)COC(=O)c1cccc(NS(=O)(=O)c2ccccc2)c1 (stereo not shown)

Result:
8.4
15.2
-4.56
-2.87
-0.48
0.629

Request: Look up hERG current change (%, negative = inhibition) at 10uM for this compound: Cc1ccc(-c2cc(-c3ccccc3)nc(N(C)N)n2)cc1
Result: 16.7
